Just for reference, PubChem BioAssay (NCI) is where these values come from.

Tested on: DU-145 prostate
Assay: NCI tumour cell line growth inhibition, 48 h
ENDPOINT LABEL: TGI (µM)
I only need the number, in µM, no unit after it.

Some solved entries appear below for comparison.
Query string: Return TGI (reported value) for this compound: O=C(N/N=C\c1ccc([N+](=O)[O-])s1)c1ccncc1
Result string: 79.3

Query string: Return TGI (reported value) for this compound: NN/C(=N\S(=O)(=O)c1ccc(S(=O)(=O)c2ccccc2)s1)Nc1ccc(Cl)cc1
Result string: 76.5

Query string: Return TGI (reported value) for this compound: COc1ccc2c(c1)CCC/C2=N\NS(=O)(=O)c1c(C)cc(C)cc1C
Result string: 68.1

Query string: Return TGI (reported value) for this compound: O=C1C(c2c(O)[nH]c3ccc(S(=O)(=O)NCCO)cc23)=Nc2ccccc21
Result string: 46.8

Query string: Return TGI (reported value) for this compound: COc1ccc(-c2n/c(=C\c3c(O)[nH]c4ccccc34)cc3c2=Nc2ccccc2-3)cc1
Result string: 3.31

Continuing:
Query string: Return TGI (reported value) for this compound: Oc1ccc(Cl)cc1/C=N\NC(=S)N/N=C/c1cc(Cl)ccc1O
Result string: 70

Query string: Return TGI (reported value) for this compound: CCCCC[C@H]1CCCCCCCCCC(=O)OC2C(O[C@@H]3OC(C)[C@H](OC(=O)[C@@H](C)CC)C(O[C@@H]4OC(C)[C@H](O)C(O)[C@@H]4O)[C@@H]3OC(=O)[C@H](C)CC)[C@H](OC3C(O)[C@@H](O)C(C)O[C@H]3O1)OC(CO)[C@H]2O (stereo not given in full)
Result string: 30

Query string: Return TGI (reported value) for this compound: CCCCCCCCCCCCCCCC1(OC)C[N+](C)(C)CCO1 (stereo not given)
Result string: 5.9

* * *

Test system: PC-3 prostate
Test: NCI tumour cell line growth inhibition, 48 h
ENDPOINT LABEL: TGI

Some solved entries appear below for comparison.
Query string: Return TGI (reported value) for this compound: CCOc1cc2c(cc1O)C(N)C[C@@H]1[C@@H]2CC[C@]2(C)[C@@H](O)CC[C@@H]12 (stereo not given in full)
Result string: > 100 µM

Query string: Return TGI (reported value) for this compound: O=C(N/N=C\c1ccc([N+](=O)[O-])s1)c1ccncc1
Result string: > 76.8 µM

Query string: Return TGI (reported value) for this compound: COC(=O)/C(=N\Nc1nnc(C)n1N)C(C#N)c1ccccc1 (stereo not given)
Result string: > 100 µM

Query string: Return TGI (reported value) for this compound: CC1(C)CC(=O)C2=C(C1)OC1(CC2c2ccc(Cl)cc2)CC(c2ccc(Cl)cc2)C2=C(CC(C)(C)CC2=O)O1 (stereo not given)
Result string: > 65.9 µM

As a next step, examine the compound that follows.
Query string: Return TGI (reported value) for this compound: O=C(/C=C/c1ccco1)c1ccc(Nc2nc(Nc3ccc(F)cc3)nc(Nc3ccc(F)cc3)n2)cc1
Result string: 21.9 µM

* * *

Test system: MALME-3M melanoma
Test: NCI tumour cell line growth inhibition, 48 h
ENDPOINT LABEL: TGI

Query string: Return TGI (reported value) for this compound: O=C(O)CCc1nc(-c2ccccc2-n2cccc2)no1
Result string: > 100 µM

Query string: Return TGI (reported value) for this compound: O=c1[nH]cc(C(F)(C(F)(F)F)C(F)(F)F)c(=O)[nH]1
Result string: > 100 µM

Query string: Return TGI (reported value) for this compound: CCCOC(=O)C1C2CCC(O2)C1C(=O)O (stereo not drawn)
Result string: > 100 µM

Query string: Return TGI (reported value) for this compound: Cc1cc2ccc(N)nc2[nH]c1=O
Result string: > 100 µM

Query string: Return TGI (reported value) for this compound: Cc1ccc(S[C@@H](C)[C@@](O)(C(N)=O)c2ccccc2)cc1
Result string: 42.8 µM

Query string: Return TGI (reported value) for this compound: C/C(=N\NC(N)=S)c1ccc(C2CCCCC2)cc1
Result string: 37.6 µM

Continuing:
Query string: Return TGI (reported value) for this compound: CCOC(=O)CC(NC(=O)c1ccc(N=NN(C)C)cc1)C(=O)OCC (stereo not drawn)
Result string: > 100 µM

Query string: Return TGI (reported value) for this compound: CN(C)CCNC(=O)c1c(O)ccc2c1c1c(n2CCc2ccccc2)C(=O)c2ccccc2C1=O
Result string: 9.35 µM
